The reported measurements were obtained from patent US20130272968A1.

Target: T1, extracellular domain of human PRLR (soluble, monomeric, expressed in HEK293 cells) (human, UniProt P16471 25-234)
T1 construct: also called ECD-PRLR; ECD of PRLR
T1 sequence: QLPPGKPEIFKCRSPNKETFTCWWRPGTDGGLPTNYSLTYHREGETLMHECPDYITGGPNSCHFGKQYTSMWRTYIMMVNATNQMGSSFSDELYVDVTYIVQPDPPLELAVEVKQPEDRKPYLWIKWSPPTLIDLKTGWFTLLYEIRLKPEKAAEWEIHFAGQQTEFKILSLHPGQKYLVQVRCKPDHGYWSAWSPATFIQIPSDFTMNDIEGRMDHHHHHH
Assay: HTRF competition: Fab-containing E. coli supernatant with biotinylated ECD of human PRLR and streptavidin-europium, then Alexa Fluor 647-labelled IgG1 006-H08 as competitor; signal at 665 nm after 5 to 65 min; lower signal than control Fab 006-H08 = improved binding
propertyLabel: binding result

- binder: "006-H08-29-1 (Fab, V domains shown, Tested as E. coli supernatant; also called maturated 006-H08 Fab variant; copies: 1 + 1) VH: EVQLLESGGGLVQPGGSLRLSCAASGFTFDDYGMSWVRQAPGKGLEMVAVISFDGSNKYYADSVKGRFTISRDNSQNTLYLQMNSLRAEDTAVYYCASPLESPVAFDIWGQGTLVTVSS VL: QSVLTQPPSASGTPGQRVTISCSGLNDNVGGSPVNWYQQLPGTAPKLLIYDNNKRPSGVPDRFSGSKSGTSASLAISGLRSEDEADYYCQSYDTGAGMWVFGGGTKLTVL"
  propertyLabel: "binding result"
  result: "binds"
